# measurement-description: Single-dose pharmacokinetics in mice
# Format: in vivo, male CD1 mice
# conditions: male, CD1, mouse, plasma, po, 100 mg/kg
outcome-measure: Cmax (ng/mL)
State just the number; it will be interpreted in ng/mL.

Record request: Cmax value, item CC(=O)N1CCC(C(=O)N2CCN3C(=O)c4cc(-c5ccccc5)ccc4NC(=O)C3C2)CC1 (stereo not shown)
416

====

# measurement-description: Plasma protein binding, rapid equilibrium dialysis
# Type: in vitro ADME
# conditions: human, pH 7.4
outcome-measure: fraction unbound at 6 h, 2 μM
Enter a number only.

Record request: fraction unbound at 6 h, 2 μM value, item CC(=O)N1CCC(C(=O)N2CCN3C(=O)c4cc(-c5ccccc5)ccc4NC(=O)C3C2)CC1 (stereo not shown)
0.525

====

# measurement-target: CYP2B6 (Homo sapiens, UniProt P20813)
# Sequence (P20813 1-491): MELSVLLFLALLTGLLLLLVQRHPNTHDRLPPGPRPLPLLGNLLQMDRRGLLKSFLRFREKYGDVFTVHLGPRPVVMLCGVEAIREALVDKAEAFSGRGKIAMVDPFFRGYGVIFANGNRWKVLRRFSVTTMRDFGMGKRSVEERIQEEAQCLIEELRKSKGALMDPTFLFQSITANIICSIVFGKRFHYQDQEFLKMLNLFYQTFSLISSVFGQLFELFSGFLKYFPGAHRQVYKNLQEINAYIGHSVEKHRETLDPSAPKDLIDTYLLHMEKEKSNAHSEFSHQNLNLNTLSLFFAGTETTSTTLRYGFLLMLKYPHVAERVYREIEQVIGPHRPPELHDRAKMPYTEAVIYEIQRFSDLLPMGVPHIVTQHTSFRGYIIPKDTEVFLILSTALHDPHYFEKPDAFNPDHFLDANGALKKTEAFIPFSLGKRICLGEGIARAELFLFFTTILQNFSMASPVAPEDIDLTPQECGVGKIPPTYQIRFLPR
# measurement-description: Human liver microsome CYP inhibition assay, CYP2B6
# Type: biochemical
# conditions: human liver microsomes
outcome-measure: inhibition at 5 min, 50 µM (%)
State just the number; it will be interpreted in %.

I'm curious: which inhibition at 5 min, 50 µM was measured for CC(=O)N1CCC(C(=O)N2CCN3C(=O)c4cc(-c5ccccc5)ccc4NC(=O)C3C2)CC1 (stereo not shown) [MPOL_B_1] tested on CYP2B6 (Homo sapiens, UniProt P20813)?
0

Values compiled from paper PMC12777986.
